tested on: M14 melanoma; assay: NCI-60 one-dose screen, 48 h (100 = growth as untreated, 0 = no growth, -100 = all killed); conditions: 10 µM unless noted
This is part of a sample that, as a whole, favours compounds with a hit. Of some 83,000 tested, about 20% had one in any assay.
Recorded growth values for a group of molecules are listed next.
Record the value in %, omitting the unit from your answer.

[[record]]
smiles = "c1ccc2[nH]c(-c3ccc(-c4nccc5c4[nH]c4ccccc45)cc3)nc2c1"
readout_unit = "%"
assay_result = 72.8

[[record]]
smiles = "O=C(O)COc1ccc(F)cc1"
readout_unit = "%"
assay_result = 109

[[record]]
smiles = "CC(=O)O[C@H]1C[C@@]2(C)[C@@H](C[C@@H](O)[C@H]3[C@@]4(C)CC[C@H](N5CCCC5)[C@@H](C)[C@@H]4CC[C@@]32C)/C1=C(\\CCC=C(C)C)C(=O)O"
readout_unit = "%"
assay_result = 92.2

[[record]]
smiles = "C[C@@H]1N=C(c2ccc(Cl)cc2Cl)Nc2nc3ccccn3c2C1=O"
readout_unit = "%"
assay_result = 31.1

[[record]]
smiles = "COc1ccc(Cn2cc(C(=O)N=Nc3c(O)[nH]c4ccc(Br)cc34)nn2)cc1"
readout_unit = "%"
assay_result = 111


Prompt: Report growth for O=C(NC1CCCCCC1)c1ccc2c(=O)n3c(nc2c1)CCCCC3 please.
Response: 110

Prompt: Name the reported growth value associated with the molecule C=C(C)[C@@H]1CCC[C@]2(C(=O)OC)CC[C@]3(C)[C@@H](CC[C@@H]4[C@@]5(C)CCCNC(C)(C)[C@@H]5CC[C@]43C)[C@@H]12
Response: 97

Prompt: Reported growth, molecule C#C[C@]1(O)CC[C@H]2[C@@H]3CC=C4c5sc(-c6cccc(C)c6)nc5CC[C@]4(C)[C@H]3CC[C@@]21C : ____
Response: 58.7
